Target: T1, corticotropin releasing factor 2 receptor; also: reference of the scale not given here
T1 sequence (Q13324 whole entry, species assumed, looked up): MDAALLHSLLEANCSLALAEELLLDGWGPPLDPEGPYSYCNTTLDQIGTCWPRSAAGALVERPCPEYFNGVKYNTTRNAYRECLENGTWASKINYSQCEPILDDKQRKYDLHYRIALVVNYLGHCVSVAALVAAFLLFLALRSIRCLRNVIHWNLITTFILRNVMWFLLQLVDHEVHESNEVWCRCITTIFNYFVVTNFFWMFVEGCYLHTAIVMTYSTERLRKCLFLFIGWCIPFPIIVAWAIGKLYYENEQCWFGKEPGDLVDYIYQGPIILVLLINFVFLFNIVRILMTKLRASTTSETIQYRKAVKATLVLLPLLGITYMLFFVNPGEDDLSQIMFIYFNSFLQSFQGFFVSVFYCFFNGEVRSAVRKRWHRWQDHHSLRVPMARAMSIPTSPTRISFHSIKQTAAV
Experiment: cell-based or functional assay
Ends that are not written are not given here.
Parameter CRF2R Emax: see the listing below.
# output: bare number, implied unit %

// CRF2R Emax lookup, key: ZGPPISIDLPFQLLRKMIEIEKQEKEKQQATTNARLLDRV (C-terminal amide) [SEQ ID NO 22]
100

Input ZGPPISIDLPIWLLRKMIEIEKQEKEKQQAANNRLLLDTI (C-terminal amide) [SEQ ID NO 192]
97

Input ZGPPISIDLPTKLLRKMIEIEKQEKEKQQAANNRLLLDTI (C-terminal amide) [SEQ ID NO 45]
44

Input IVLSLDVPIGLLQILLEQARARAAREQATSNRKLMEII-NH2 [SEQ ID NO 163]
96

Input ZGPPISIDLPIRLLRKMIEIEKQEKEKQQAANNRLLLDTI (C-terminal amide) [SEQ ID NO 38]
91

Input IVLSLDVPIGLLQILLEQARAAAREQATTNARILARV-NH2 [SEQ ID NO 141]
29

Input IVLSLDVPIGLLQILLEQARARAAREQATTQARILARV-NH2 [SEQ ID NO 9]
34

Input ZGPPISIDLPHHLLRKMIEIEKQEKEKQQAANNRLLLDTI (C-terminal amide) [SEQ ID NO 205]
93

Input ZGPPISIDLPFQLLRKMIEIEKQEKEKQQATTNRLLLATV (C-terminal amide) [SEQ ID NO 17]
96

Input ZGPPISIDLPTILLRKMIEIEKQEKEKQQAANNRLLLDTI (C-terminal amide) [SEQ ID NO 50]
94

Input ZGPPISIDLPTPLLRKMIEIEKQEKEKQQAANNRLLLDTI (C-terminal amide) [SEQ ID NO 52]
10

Input ZGPPISIDLPFILLRKMIEIEKQEKEKQQAANNRLLLDTI (C-terminal amide) [SEQ ID NO 189]
96

Input ZGPPISIDLPFGLLRKMIEIEKQEKEKQQAANNRLLLDTI (C-terminal amide) [SEQ ID NO 68]
74

Input IVLSLDVPIGLLQILLEQERARAAREQATTNARILARV-NH2 [SEQ ID NO 119]
95

Input DNPSLSIDLPLHLLRTLLELARTQSQRERAEQNAIIFASV-NH2 [SEQ ID NO 179]
92.5

Input ZGPPISIDLPFELLRKMIEIEKQEKEKQQAANNRLLLDTI (C-terminal amide) [SEQ ID NO 67]
50

Input ZGPPISIDLPTSLLRKMIEIEKQEKEKQQAANNRLLLDTI (C-terminal amide) [SEQ ID NO 43]
67

Input SEEPPISLDVPIGLLQEVLEMARAEQLAQQAHSNRKLMEII-NH2 [SEQ ID NO 162]
7

Input IVLSLDVPIGLLQILIEIEKQEKEKQQAANNRLLLDTI-NH2 [SEQ ID NO 154]
100

Input ZGPPISIDLPAHLLRKMIEIEKQEKEKQQAANNRLLLDTI (C-terminal amide) [SEQ ID NO 206]
97

Input SQEPPISLDLPLYLLREVLEMTKADQLAQQAHSNRKLLDIA-NH2 [SEQ ID NO 101]
6.95
